Answer each item with its documented IC50.
Biological target: hSERT (Homo sapiens)
Sequence (P31645 whole entry): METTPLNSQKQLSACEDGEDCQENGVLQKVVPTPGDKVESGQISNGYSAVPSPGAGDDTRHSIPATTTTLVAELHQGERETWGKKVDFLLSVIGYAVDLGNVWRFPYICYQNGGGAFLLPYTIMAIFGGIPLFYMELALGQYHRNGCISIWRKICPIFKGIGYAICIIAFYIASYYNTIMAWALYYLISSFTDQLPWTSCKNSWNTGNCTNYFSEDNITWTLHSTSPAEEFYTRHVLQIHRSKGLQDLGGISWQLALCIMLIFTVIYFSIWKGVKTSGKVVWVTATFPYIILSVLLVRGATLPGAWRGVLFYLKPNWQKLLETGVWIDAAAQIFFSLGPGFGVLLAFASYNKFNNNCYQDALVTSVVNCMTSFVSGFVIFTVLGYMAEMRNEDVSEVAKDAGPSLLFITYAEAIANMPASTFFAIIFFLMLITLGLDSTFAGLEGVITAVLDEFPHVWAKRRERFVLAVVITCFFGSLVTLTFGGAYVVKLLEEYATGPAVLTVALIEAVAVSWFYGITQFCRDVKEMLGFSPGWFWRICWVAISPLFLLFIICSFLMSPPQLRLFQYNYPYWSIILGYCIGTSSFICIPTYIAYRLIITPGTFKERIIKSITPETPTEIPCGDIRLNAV
Assay: fluorescence-based serotonin reuptake inhibition assay (Tsuruda et al. 2010; data indicated by an asterisk)
Assay type: cell-based
Set-up: expressed in transfected cells; host or cells: HEK-293
Conditions: fluorescence-based assay (values with asterisk), read-out: SERT pIC50 (converted)

Query block: Bench note: what IC50 did Fc1ccc(Cl)c(Cl)c1O[C@H](C1CC1)[C@H]1CCNC1 show?
Result block: ≤ 0.01 µM

Query block: Please give the measured IC50 for this molecule: CC[C@H](Oc1cccc(Cl)c1C)[C@H]1CCNC1
Result block: ≤ 0.01 µM

Query block: Reported IC50, molecule CC[C@@H](Oc1ccc(Cl)c(F)c1)[C@H]1CCNC1 : ____
Result block: ≤ 0.01 µM

Query block: What IC50 value was documented for this molecule, Cc1cc(O[C@H](C(C)C)[C@H]2CCNC2)ccc1Cl ?
Result block: ≤ 0.01 µM

Query block: Using the record for Cc1c(Cl)cccc1O[C@@H](CC(C)C)[C@H]1CCNC1 , report its IC50.
Result block: ≤ 0.01 µM

Query block: So what's the measured IC50 for this one? CC[C@@H](Oc1c(F)ccc(OC)c1Cl)[C@H]1CCNC1
Result block: ≤ 0.01 µM

Query block: For COc1ccc(F)c(O[C@@H](C2CC2)[C@H]2CCNC2)c1Cl , what is its reported IC50?
Result block: ≤ 0.01 µM

Query block: # lookup: IC50 of CC(C)[C@H](Oc1ccc(C(F)(F)F)cc1Cl)[C@H]1CCNC1
Result block: ≤ 0.01 µM

Query block: Report IC50 for Clc1ccccc1O[C@H](C1CC1)[C@H]1CCNC1 please.
Result block: ≤ 0.1 µM

Query block: Look up IC50: Clc1ccc(OC(C2CCCC2)C2CCNC2)cc1 (centres unmarked)
Result block: ≤ 0.01 µM

Query block: Which IC50 value is on record for CCC[C@@H](Oc1c(F)ccc(OC)c1Cl)[C@H]1CCNC1 ?
Result block: ≤ 0.01 µM

Query block: Tell me the measured IC50 of CC(C)[C@H](Oc1cccc(Cl)c1C(F)(F)F)[C@H]1CCNC1 , please.
Result block: ≤ 0.1 µM

Query block: Entry under review: COc1c(O[C@H](C2CC2)[C@H]2CCNC2)ccc(Cl)c1Cl . Reported IC50?
Result block: ≤ 0.01 µM

Query block: Reported IC50, molecule CC(C)C[C@H](Oc1c(F)ccc(F)c1Cl)[C@H]1CCNC1 : ____
Result block: ≤ 0.01 µM

Query block: Entry CCC(CC)[C@H](Oc1cccc(Cl)c1Cl)[C@H]1CCNC1 has what IC50?
Result block: ≤ 0.01 µM

Query block: Quick check: IC50 of Cc1cc(Cl)ccc1OC(C1CCCC1)C1CCNC1 (centres unmarked) ?
Result block: ≤ 0.01 µM

Query block: Requested read-out: IC50. Entry: CC(C)[C@@H](Oc1ccc(Cl)c(Cl)c1)[C@H]1CCNC1
Result block: ≤ 0.01 µM

Query block: # get_value(readout='IC50', item= COc1cc(Cl)ccc1O[C@H](C(C)C)[C@@H]1CCNC1 )
Result block: ≤ 0.01 µM

Query block: What value of measured IC50 is listed for CC(C)[C@@H](Oc1cc(Cl)ccc1Cl)[C@H]1CCNC1 ?
Result block: ≤ 0.1 µM

Query block: Would you kindly share the measured IC50 for CCC[C@@H](Oc1cccc(Cl)c1C(F)(F)F)[C@@H]1CCNC1 ?
Result block: ≤ 0.1 µM

The reported measurements were obtained from patent US7994209B2.
